Just for reference, ChEMBL document CHEMBL2417509 is where these values come from.

test system: NCI-H522; test: Cytotoxicity against human NCI-H522 cells after 2 days by sulforhodamine B assay; format: functional; conditions: NCI-H522, 48 h
valueKind: TGI (µM)
The answer is to be given in µM; state only the numeric part.

# count of solved cases: 2
CCC(=C(c1ccc(OCCN(C)C)cc1)c1ccc(OC(=O)CCCCC(=O)C2=C(C)/C(=C/c3[nH]c(-c4ccc[nH]4)cc3OC)N=C2C)cc1)c1ccccc1 : 14.4
CC/C(=C(/c1ccc(OCCN(C)C)cc1)c1ccc(OC(=O)CCC(=O)C2=C(C)/C(=C/c3[nH]c(-c4ccc[nH]4)cc3OC)N=C2C)cc1)c1ccccc1 : 5.89

Consider the record given below.
Find TGI for COc1cc(-c2ccc[nH]2)[nH]c1/C=C1\N=C(C)C(C(=O)CCC(=O)Oc2ccc3c(c2)CC[C@@H]2[C@@H]3CC[C@]3(C)C(=O)CC[C@@H]23)=C1C on NCI-H522 and write it down.
60.1

----------
Let's look at some molecules and their measured GI50.
test system: ACHN; experiment: Cytotoxicity against human ACHN cells after 2 days by sulforhodamine B assay; type: functional; conditions: 48 h
The answer is to be given in µM; state only the numeric part.

# count of solved cases: 3
CC/C(=C(/c1ccc(OCCN(C)C)cc1)c1ccc(OC(=O)CCCCCCCCC(=O)C2=C(C)/C(=C/c3[nH]c(-c4ccc[nH]4)cc3OC)N=C2C)cc1)c1ccccc1 : 7.76
COc1cc(-c2ccc[nH]2)[nH]c1/C=C1\N=C(C)C(C(=O)CCC(=O)Oc2ccc3c(c2)CC[C@@H]2[C@@H]3CC[C@]3(C)C(=O)CC[C@@H]23)=C1C : 5.83
CC/C(=C(/c1ccc(OCCN(C)C)cc1)c1ccc(OC(=O)CCC(=O)C2=C(C)/C(=C/c3[nH]c(-c4ccc[nH]4)cc3OC)N=C2C)cc1)c1ccccc1 : 2.61

Consider the record given below.
Find GI50 for CCC(=C(c1ccc(OCCN(C)C)cc1)c1ccc(OC(=O)CCCCC(=O)C2=C(C)/C(=C/c3[nH]c(-c4ccc[nH]4)cc3OC)N=C2C)cc1)c1ccccc1 on ACHN and write it down.
4.79

----------
Let's look at some compounds and their measured CC50.
test: Cytotoxicity against human Hs578T cells after 2 days by sulforhodamine B assay; assay type: functional; details: Hs-578T, 48 h, read-out: LC50 (the source's name)

# count of solved cases: 3
CC/C(=C(/c1ccc(OCCN(C)C)cc1)c1ccc(OC(=O)CCCCCCCCC(=O)C2=C(C)/C(=C/c3[nH]c(-c4ccc[nH]4)cc3OC)N=C2C)cc1)c1ccccc1 : > 100 µM
CCC(=C(c1ccc(OCCN(C)C)cc1)c1ccc(OC(=O)CCCCC(=O)C2=C(C)/C(=C/c3[nH]c(-c4ccc[nH]4)cc3OC)N=C2C)cc1)c1ccccc1 : > 100 µM
COc1cc(-c2ccc[nH]2)[nH]c1/C=C1\N=C(C)C(C(=O)CCC(=O)Oc2ccc3c(c2)CC[C@@H]2[C@@H]3CC[C@]3(C)C(=O)CC[C@@H]23)=C1C : > 100 µM

Answer with the recorded CC50 of CC/C(=C(/c1ccc(OCCN(C)C)cc1)c1ccc(OC(=O)CCC(=O)C2=C(C)/C(=C/c3[nH]c(-c4ccc[nH]4)cc3OC)N=C2C)cc1)c1ccccc1 only.
64.6 µM

----------
test system: HL-60(TB); assay: Cytotoxicity against human HL-60(TB) cells after 2 days by sulforhodamine B assay; assay type: functional; conditions: HL-60, 48 h
valueKind: GI50 (µM)
The answer is to be given in µM; state only the numeric part.

CC/C(=C(/c1ccc(OCCN(C)C)cc1)c1ccc(OC(=O)CCC(=O)C2=C(C)/C(=C/c3[nH]c(-c4ccc[nH]4)cc3OC)N=C2C)cc1)c1ccccc1 : 3.16
CCC(=C(c1ccc(OCCN(C)C)cc1)c1ccc(OC(=O)CCCCC(=O)C2=C(C)/C(=C/c3[nH]c(-c4ccc[nH]4)cc3OC)N=C2C)cc1)c1ccccc1 : 18.2
CC/C(=C(/c1ccc(OCCN(C)C)cc1)c1ccc(OC(=O)CCCCCCCCC(=O)C2=C(C)/C(=C/c3[nH]c(-c4ccc[nH]4)cc3OC)N=C2C)cc1)c1ccccc1 : 12.3

Consider the record given below.
Answer with the recorded GI50 of COc1cc(-c2ccc[nH]2)[nH]c1/C=C1\N=C(C)C(C(=O)CCC(=O)Oc2ccc3c(c2)CC[C@@H]2[C@@H]3CC[C@]3(C)C(=O)CC[C@@H]23)=C1C only.
55.8

----------
Let's look at some compounds and their measured TGI.
test: Cytotoxicity against human Hs578T cells after 2 days by sulforhodamine B assay; format: functional; details: Hs-578T, 48 h
The answer is to be given in µM; state only the numeric part.

# count of solved cases: 2
CC/C(=C(/c1ccc(OCCN(C)C)cc1)c1ccc(OC(=O)CCCCCCCCC(=O)C2=C(C)/C(=C/c3[nH]c(-c4ccc[nH]4)cc3OC)N=C2C)cc1)c1ccccc1 : 85.1
CCC(=C(c1ccc(OCCN(C)C)cc1)c1ccc(OC(=O)CCCCC(=O)C2=C(C)/C(=C/c3[nH]c(-c4ccc[nH]4)cc3OC)N=C2C)cc1)c1ccccc1 : 47.9

Consider the record given below.
Answer with the recorded TGI of CC/C(=C(/c1ccc(OCCN(C)C)cc1)c1ccc(OC(=O)CCC(=O)C2=C(C)/C(=C/c3[nH]c(-c4ccc[nH]4)cc3OC)N=C2C)cc1)c1ccccc1 only.
4.68

----------
Let's look at some compounds and their measured GI50.
test system: IGROV-1; assay: Cytotoxicity against human IGROV1 cells after 2 days by sulforhodamine B assay; assay type: functional; details: IGROV-1, 48 h
The answer is to be given in µM; state only the numeric part.

CC/C(=C(/c1ccc(OCCN(C)C)cc1)c1ccc(OC(=O)CCC(=O)C2=C(C)/C(=C/c3[nH]c(-c4ccc[nH]4)cc3OC)N=C2C)cc1)c1ccccc1 : 3.66
CC/C(=C(/c1ccc(OCCN(C)C)cc1)c1ccc(OC(=O)CCCCCCCCC(=O)C2=C(C)/C(=C/c3[nH]c(-c4ccc[nH]4)cc3OC)N=C2C)cc1)c1ccccc1 : 22.9
CCC(=C(c1ccc(OCCN(C)C)cc1)c1ccc(OC(=O)CCCCC(=O)C2=C(C)/C(=C/c3[nH]c(-c4ccc[nH]4)cc3OC)N=C2C)cc1)c1ccccc1 : 13.2

Consider the record given below.
Answer with the recorded GI50 of COc1cc(-c2ccc[nH]2)[nH]c1/C=C1\N=C(C)C(C(=O)CCC(=O)Oc2ccc3c(c2)CC[C@@H]2[C@@H]3CC[C@]3(C)C(=O)CC[C@@H]23)=C1C only.
8.4

----------
test system: HCT-15; test: Cytotoxicity against human HCT15 cells after 2 days by sulforhodamine B assay; format: functional; conditions: HCT-15, 48 h
valueKind: GI50

# count of solved cases: 2
CC/C(=C(/c1ccc(OCCN(C)C)cc1)c1ccc(OC(=O)CCCCCCCCC(=O)C2=C(C)/C(=C/c3[nH]c(-c4ccc[nH]4)cc3OC)N=C2C)cc1)c1ccccc1 : 5.13 µM
COc1cc(-c2ccc[nH]2)[nH]c1/C=C1\N=C(C)C(C(=O)CCC(=O)Oc2ccc3c(c2)CC[C@@H]2[C@@H]3CC[C@]3(C)C(=O)CC[C@@H]23)=C1C : 2.6 µM

Answer with the recorded GI50 of CC/C(=C(/c1ccc(OCCN(C)C)cc1)c1ccc(OC(=O)CCC(=O)C2=C(C)/C(=C/c3[nH]c(-c4ccc[nH]4)cc3OC)N=C2C)cc1)c1ccccc1 only.
0.93 µM

Answer with the recorded GI50 of CCC(=C(c1ccc(OCCN(C)C)cc1)c1ccc(OC(=O)CCCCC(=O)C2=C(C)/C(=C/c3[nH]c(-c4ccc[nH]4)cc3OC)N=C2C)cc1)c1ccccc1 only.
4.47 µM

----------
system: LOX IMVI; assay: Cytotoxicity against human LOXIMVI cells after 2 days by sulforhodamine B assay; assay type: functional; details: 48 h
valueKind: TGI (µM)
The answer is to be given in µM; state only the numeric part.

CCC(=C(c1ccc(OCCN(C)C)cc1)c1ccc(OC(=O)CCCCC(=O)C2=C(C)/C(=C/c3[nH]c(-c4ccc[nH]4)cc3OC)N=C2C)cc1)c1ccccc1 : 5.13

Answer with the recorded TGI of COc1cc(-c2ccc[nH]2)[nH]c1/C=C1\N=C(C)C(C(=O)CCC(=O)Oc2ccc3c(c2)CC[C@@H]2[C@@H]3CC[C@]3(C)C(=O)CC[C@@H]23)=C1C only.
3.56

Answer with the recorded TGI of CC/C(=C(/c1ccc(OCCN(C)C)cc1)c1ccc(OC(=O)CCC(=O)C2=C(C)/C(=C/c3[nH]c(-c4ccc[nH]4)cc3OC)N=C2C)cc1)c1ccccc1 only.
1.62

Answer with the recorded TGI of CC/C(=C(/c1ccc(OCCN(C)C)cc1)c1ccc(OC(=O)CCCCCCCCC(=O)C2=C(C)/C(=C/c3[nH]c(-c4ccc[nH]4)cc3OC)N=C2C)cc1)c1ccccc1 only.
5.89
